- MEASURED TARGET: Paired box protein Pax-6 (Homo sapiens)
- ASSAY OVERVIEW: ATG_Pax6_CIS: Attagene CIS-FACTORIAL HepG2 Assay for human Paired Box 6 (PAX6) (AID 2282956)
- MEASUREMENT PARAMETERS: HepG2 CIS-FACTORIAL PAX6 reporter transcription, RNA readout; actives raise or lower the signal
- Description: ATG_CIS is a cell-based, multiplexed-readout assay that uses HepG2, a human liver cell line, with measurements taken at 24 hours after chemical dosing in a 24-well plate.ATG_Pax6_CIS is one of 52 assay component(s) measured or calculated from the ATG_CIS assay. […] This assay endpoint, ATG_Pax6_CIS, was analyzed with bidirectional fitting relative to DMSO as the negative control and baseline of activity. […]
Activity calls are given as the source filed them. How the source made its calls: active means hit-call score of the fitted dose curve at least 0.9, where 1 is the maximum; inactive means score below 0.9.
Outcomes you can answer with include only these: active, inactive

Study these solved cases before continuing.
## Input Kindly provide the recorded test outcome for the following compound: `CCCCCCCCO`
## Output inactive

## Input Which outcome did this test record for the compound `CCCN(C1CCN(C(=O)C2CCNCC2)CC1)[C@@H]1CCc2ccc(OC)cc2C1` ?
## Output inactive

New cases:
## Input Please state the recorded outcome for this compound: `CCc1cc(SCc2sc(-c3ccc(C(F)(F)F)cc3)nc2CN2CCN(c3ccc(OC)cc3)CC2)ccc1OCC(=O)O`
## Output active

## Input What was the test verdict on `COC(=O)CC(=O)OC` ?
## Output inactive

## Input Could you kindly confirm the outcome this assay logged for `Cc1c(-c2cccnc2)c2ccccc2n1CCCCC(=O)O` ?
## Output inactive

## Input Per the records of this test, what outcome belongs to CC(C)=CCCC(C)CCO (configuration not stated) ?
## Output inactive

## Input How was `Cn1c(=O)cc(Oc2ccc(F)cc2F)c2cnc(NCC(C)(C)O)nc21` classified in this test?
## Output inactive

----------
- ASSAY OVERVIEW: CCTE_Deisenroth_DEVTOX-GLR_legacy_CellCount: (Legacy) Viability Assessment in CCTE's DevTox GLR-Endo Assay, Deisenroth Lab (AID 2284331)
- MEASUREMENT PARAMETERS: actives raise or lower the signal
Active and inactive are the calls of the source. The calls were made as follows: active = hit-call score of the fitted dose curve at least 0.9, where 1 is the maximum; inactive = score below 0.9.
Answer with one of the outcomes YES = active, NO = inactive

Solved entries (count: 3):
## Input Which outcome did this test record for the molecule `CC[C@H](C)C(=O)O[C@H]1C[C@@H](C)C=C2C=C[C@H](C)[C@H](CC[C@@H]3C[C@@H](O)CC(=O)O3)[C@H]21` ?
## Output YES

## Input Check the results log: what was the call for `NC(=O)NO` ?
## Output YES

## Input Any idea what this test logged for `Cn1c(=O)c2c(ncn2C)n(C)c1=O` ?
## Output NO

From here, focus on the item given below.
## Input What classification did `C[C@](N)(Cc1ccc(O)c(O)c1)C(=O)O` end up with in this test?
## Output NO

----------
- Read-out: Transforming Growth Factor (TGFB1), TGFB1 (gene 7040)
- ASSAY OVERVIEW: LTEA_HepaRG_TGFB1: Life Technologies and Expression Analysis (LTEA) Assay for Transforming Growth Factor (TGFB1) Transporter using HepaRG (AID 2283533)
- MEASUREMENT PARAMETERS: mRNA level, 48 h; actives raise or lower the signal
- Experimental: LTEA_HepaRG is a cell based, multiplexed-readout assay that uses HepaRG, a human liver cell line, with measurements taken at 48 hours after chemical dosing on a 96-well plate.LTEA_HepaRG_TGFB1 is one of 102 assay component(s) measured in the LTEA HepaRG cell culture assay. It is a marker of Cell proliferation, survival, death.Data from the assay component LTEA_HepaRG_TGFB1 was analyzed into 1 endpoint. […]
Activity calls are given as the source filed them. Rule for the calls: active = hit-call score of the fitted dose curve at least 0.9, where 1 is the maximum; inactive = score below 0.9.
EXPERIMENTAL ENDPOINT: AC50

Please review the entries below; each comes with its answer.
## Input Looking for the measured AC50 of `CCOC(=O)CC(CC(=O)OCC)(OC(C)=O)C(=O)OCC` , can you help?
## Output inactive

## Input // AC50 lookup, key: `CCCCCCCCCCCCc1ccccc1`
## Output inactive

## Input AC50 for `CC(=O)c1ccc2c(c1)[C@H](NC(=O)c1ccc(F)cc1)[C@@H](O)C(C)(C)O2` ?
## Output inactive

## Input What does the data say about its AC50? Entry: `Clc1nc(Cl)c(Cl)c(Cl)c1Cl`
## Output inactive

## Input Consider the molecule shown here: `Cn1c(=O)c2c(ncn2C)n(C)c1=O` What is its recorded AC50?
## Output inactive

## Input Returns the measured AC50 for the input molecule. Input: `C1=CCCC=CCCC=CCC1`
## Output inactive

Moving on to the next molecule.
## Input Give the measured AC50 of `C=CCCCCCCCCC(=O)O` .
## Output inactive

----------
- Read-out: NAD(P)H dehydrogenase [quinone] 1 (NQO1), NQO1 (gene 1728)
- ASSAY OVERVIEW: LTEA_HepaRG_NQO1: Life Technologies and Expression Analysis (LTEA) Assay for NAD(P)H dehydrogenase [quinone] 1 (NQO1) using HepaRG (AID 2283526)
- MEASUREMENT PARAMETERS: mRNA level, 48 h; actives raise or lower the signal
Activity calls are given as the source filed them. How the source made its calls: active means hit-call score of the fitted dose curve at least 0.9, where 1 is the maximum; inactive means score below 0.9.
Please reply with one of these outcomes: label 1 (active), label 0 (inactive)

## Input # lookup: test call for `CCOc1cccc(-n2cc(C(=O)N3CCN(c4cc(C(=O)O)c5ccccc5c4)CC3)nc2-c2ccc(C)cc2)c1`
## Output label 1

## Input Hi, do you know how `COC(=O)c1c(Cl)c(Cl)c(C(=O)OC)c(Cl)c1Cl` came out in this test?
## Output label 0

## Input Per the records of this test, what outcome belongs to `CC1(C)C(=O)N(Br)C(=O)N1Br` ?
## Output label 0

## Input What classification did `CC(C)=CCC/C(C)=C/CO` end up with in this test?
## Output label 0

## Input What outcome does the record of this test show for `Cc1ccc(C)c(O)c1` ?
## Output label 0

New cases:
## Input Per the records of this test, what outcome belongs to `O=C(OC[C@H]1O[C@@H](OC(=O)c2cc(O)c(O)c(OC(=O)c3cc(O)c(O)c(O)c3)c2)[C@H](OC(=O)c2cc(O)c(O)c(OC(=O)c3cc(O)c(O)c(O)c3)c2)[C@@H](OC(=O)c2cc(O)c(O)c(OC(=O)c3cc(O)c(O)c(O)c3)c2)[C@@H]1OC(=O)c1cc(O)c(O)c(OC(=O)c2cc(O)c(O)c(O)c2)c1)c1cc(O)c(O)c(OC(=O)c2cc(O)c(O)c(O)c2)c1` ?
## Output label 1

## Input Recorded test call requested for `CC1=CC(=O)CC(C)(C)C1`
## Output label 0

## Input Tell me the assay call for `Clc1nc(Cl)c(Cl)c(Cl)c1Cl` please.
## Output label 0

## Input // outcome(item) with item = `CC(C)CCO`
## Output label 0

----------
- ASSAY OVERVIEW: BSK_4H_SRB: Viability Assessment in the BioMAP Diversity Plus: 4H Assay (AID 2283027);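 further: cells exposed to compound for 24 h before staining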
- MEASUREMENT PARAMETERS: primary human endothelial cells (HUVEC)
Calls of active or inactive are those of the source. How the source made its calls: active means hit-call score of the fitted dose curve at least 0.9, where 1 is the maximum; inactive means score below 0.9.
Select the matching outcome among yes (active), no (inactive)

## Input Write down the call the test reported for this compound. Item: `O=C(O)CCN(C1(C(=O)NO)CCCC1)S(=O)(=O)c1ccc(Oc2ccc(F)cc2)cc1`
## Output no

## Input I'd appreciate the recorded outcome for O=c1[nH]c2ccc(S(=O)CCN3CCC(Cc4ccc(F)cc4)CC3)cc2o1 (centres undefined) from this test.
## Output yes

## Input What outcome does the record of this test show for `COC(=O)c1ccccc1O` ?
## Output no

## Input // outcome(item) with item = `CCn1nc(Cc2ccccc2)cc1C1CCN(C[C@H]2C[C@H](N(C)[C@@H](C(=O)O)C(C)C)C[C@@H]2c2cccc(F)c2)CC1`
## Output no

## Input For `COCCOc1cc2cc(C(=O)NC3CCN(C(C)C)CC3)n(CC(=O)Nc3ccc(Cl)cn3)c2cn1` , which call appears in the assay record?
## Output no

Others:
## Input // param item: CC/C(=C\C(=N/O)C(N)=O)C(C)[N+](=O)[O-] (centres undefined) ; yields the recorded call
## Output no

## Input Status in this test for COc1ccc(-n2nc(C(F)F)cc2-c2ccc(S(C)=O)cc2)cc1 (centres undefined) ?
## Output no

## Input Per the assay record, what outcome was assigned to `CNCc1ccc(NC(=O)c2c[nH]c3c2C(=O)CCC3)cc1` ?
## Output no

## Input Each compound tested received a call. Report the one for O=C1CCC(N2C(=O)c3ccccc3C2=O)C(=O)N1 (centres undefined) .
## Output no

----------
- Read-out: Matrix Metallopeptidase 1 (MMP1), MMP1 (gene 4312)
- ASSAY OVERVIEW: BSK_hDFCGF_MMP1: BioMAP Diversity Plus: hDFCGF Assay for Matrix Metallopeptidase 1 (MMP1) Biomarker Activity (AID 2283064)
- MEASUREMENT PARAMETERS: primary human foreskin fibroblasts; actives raise or lower the signal
- Method: BSK_hDFCGF is a cell-based, multiplexed-readout assay that uses foreskin fibroblast, a human skin primary cell, with measurements taken at 24 hours after chemical dosing in a 96-well plate.BSK_hDFCGF_MMP1 is an assay component measured in the BSK_hDFCGF assay. It measures MMP-1 antibody related to regulation of gene expression using ELISA technology.Data from the assay component BSK_hDFCGF_MMP1 was analyzed into 1 assay endpoint. […]
The source made the active and inactive calls. How the source made its calls: active means hit-call score of the fitted dose curve at least 0.9, where 1 is the maximum; inactive means score below 0.9.
Assign a class; possible classes are active, inactive

## Input Outcome logged for CNS(=O)(=O)c1cc(C(=O)N2CCC(CCN3C4CCC3CC(n3c(C)nc5ccccc53)C4)(c3cccc(F)c3)CC2)c(Cl)cc1F (stereo unspecified) in this assay:
## Output inactive

***
## Input Assay outcome for COc1ccc(-n2nc(C(F)F)cc2-c2ccc(S(C)=O)cc2)cc1 (stereo unspecified) : what was it?
## Output inactive

## Input Tell me the assay call for `Nc1cccc(N)c1` please.
## Output inactive

## Input Just curious, what result did `O=C(CCCCCCCCc1cccnc1)N1CCC(C=C(c2ccccc2)c2ccccc2)CC1` get here?
## Output active

## Input // param item: `CC(C)c1cccc(C(C)C)c1N1C(=O)c2ccc(O)cc2C1=O` ; yields the recorded call
## Output inactive

## Input What call does the record list for CCOC(=O)c1ccc(C2CCC(NC[C@H](O)COc3ccc(O)c(NS(C)(=O)=O)c3)CC2)cc1 (stereo partly specified) ?
## Output active

## Input // param item: `CC(C)CCCCCCOC(=O)c1ccc(C(=O)OCCCCCCC(C)C)c(C(=O)OCCCCCCC(C)C)c1` ; yields the recorded call
## Output inactive

## Input Identify the outcome logged in this assay for the molecule shown: `CC[C@H](C)C(=O)O[C@H]1C[C@@H](C)C=C2C=C[C@H](C)[C@H](CC[C@@H]3C[C@@H](O)CC(=O)O3)[C@H]21`
## Output active

## Input Fill in: this test's call for `Cc1ccc(N)cc1O` is ___
## Output inactive

## Input Name the outcome recorded for `CCCCCCc1ccc(O)cc1O` in the assay.
## Output active

## Input Answer briefly: the call reported for `CNCc1ccc(NC(=O)c2c[nH]c3c2C(=O)CCC3)cc1` in this assay.
## Output inactive
